Measured values drawn from paper PMC6017545 for this set.

studySystem: BRK (Homo sapiens, UniProt Q13882)
Sequence (Q13882 whole entry): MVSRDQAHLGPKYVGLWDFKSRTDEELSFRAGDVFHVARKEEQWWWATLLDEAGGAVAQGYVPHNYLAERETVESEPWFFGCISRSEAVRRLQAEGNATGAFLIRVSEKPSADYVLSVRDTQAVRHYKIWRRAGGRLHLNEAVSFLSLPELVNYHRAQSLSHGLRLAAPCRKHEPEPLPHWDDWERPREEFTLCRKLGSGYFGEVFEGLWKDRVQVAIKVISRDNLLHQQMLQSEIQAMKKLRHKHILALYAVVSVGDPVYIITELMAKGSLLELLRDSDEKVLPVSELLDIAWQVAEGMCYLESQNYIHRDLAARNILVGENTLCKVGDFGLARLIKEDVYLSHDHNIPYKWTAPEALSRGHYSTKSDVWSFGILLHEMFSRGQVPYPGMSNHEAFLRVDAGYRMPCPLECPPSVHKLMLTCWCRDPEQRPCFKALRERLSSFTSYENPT
pIC50: −log10 of the molar value.

molecule | pIC50
O=C(CSc1nnc(Nc2ccc(C(F)(F)F)cc2)s1)Nc1ncc([N+](=O)[O-])s1 [Compound 2] | < 4.00

====

studySystem: LCK (Homo sapiens)
Sequence (P06239 whole entry): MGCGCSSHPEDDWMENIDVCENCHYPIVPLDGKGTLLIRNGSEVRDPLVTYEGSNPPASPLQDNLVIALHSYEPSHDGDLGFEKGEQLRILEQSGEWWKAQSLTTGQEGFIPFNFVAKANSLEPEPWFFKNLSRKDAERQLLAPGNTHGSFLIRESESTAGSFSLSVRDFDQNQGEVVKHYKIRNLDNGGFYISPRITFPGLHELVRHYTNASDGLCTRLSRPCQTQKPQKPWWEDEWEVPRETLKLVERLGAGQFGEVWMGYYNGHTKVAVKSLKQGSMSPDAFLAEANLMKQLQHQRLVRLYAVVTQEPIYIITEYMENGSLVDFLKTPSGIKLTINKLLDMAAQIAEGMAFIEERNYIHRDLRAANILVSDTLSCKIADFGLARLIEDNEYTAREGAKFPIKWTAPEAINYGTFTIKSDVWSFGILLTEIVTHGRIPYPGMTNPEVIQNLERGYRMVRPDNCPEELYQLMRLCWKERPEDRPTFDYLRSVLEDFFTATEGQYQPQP
metric: IC50 (µM)

molecule | metric | unitsLabel | reportedValue
O=C(CSc1nnc(Nc2ccc(C(F)(F)F)cc2)s1)Nc1ncc([N+](=O)[O-])s1 [Compound 2] | IC50 | µM | 40.1

====

studySystem: BTK (Homo sapiens)
Sequence (Q06187 whole entry): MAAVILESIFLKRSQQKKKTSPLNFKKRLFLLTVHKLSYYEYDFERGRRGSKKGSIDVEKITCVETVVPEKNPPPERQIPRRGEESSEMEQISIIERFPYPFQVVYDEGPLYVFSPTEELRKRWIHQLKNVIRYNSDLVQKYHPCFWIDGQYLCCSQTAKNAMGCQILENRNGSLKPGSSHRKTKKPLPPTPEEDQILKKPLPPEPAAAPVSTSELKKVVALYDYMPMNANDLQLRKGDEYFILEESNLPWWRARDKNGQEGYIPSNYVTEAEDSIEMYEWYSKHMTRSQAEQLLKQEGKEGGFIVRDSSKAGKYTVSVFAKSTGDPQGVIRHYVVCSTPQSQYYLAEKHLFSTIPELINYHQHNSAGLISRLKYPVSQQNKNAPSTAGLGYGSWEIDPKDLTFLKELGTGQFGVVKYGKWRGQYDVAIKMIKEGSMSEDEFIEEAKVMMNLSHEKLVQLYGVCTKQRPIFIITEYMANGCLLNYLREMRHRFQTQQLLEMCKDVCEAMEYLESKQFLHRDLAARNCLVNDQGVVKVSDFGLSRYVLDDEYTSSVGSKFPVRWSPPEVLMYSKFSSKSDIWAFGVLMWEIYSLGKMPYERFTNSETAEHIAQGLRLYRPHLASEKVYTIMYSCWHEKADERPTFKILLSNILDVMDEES
pIC50: −log10 of the molar value.

structureSmilesString | pIC50
O=C(CSc1nnc(Nc2ccc(C(F)(F)F)cc2)s1)Nc1ncc([N+](=O)[O-])s1 | 4.52

====

System: HeLa human cervical carcinoma cell line
assayComment: MTT cytotoxicity assay, HeLa cells
Assay type: cell-based
testConditions: Homo sapiens, HeLa, 48 h of incubation, mean ± SD, three independent experiments
Reported values of IC50 for individual entries
metric: IC50

structureSmilesString | metric | reportedValue
COc1ccc2nc(NC(=O)CSc3nnc(Nc4ccc(C(F)(F)F)cc4)s3)sc2c1 | IC50 | 30.9 µM
CCOC(=O)Cc1csc(NC(=O)CSc2nnc(Nc3ccc(C(F)(F)F)cc3)s2)n1 | IC50 | 14.1 µM
CCOc1ccc2nc(NC(=O)CSc3nnc(Nc4ccc(C(F)(F)F)cc4)s3)sc2c1 | IC50 | 69.4 µM
O=C(CSc1nnc(Nc2ccc(C(F)(F)F)cc2)s1)Nc1nc2ccc(Cl)cc2s1 | IC50 | 28.7 µM
O=C(CSc1nnc(Nc2ccc(C(F)(F)F)cc2)s1)Nc1nc2ccccc2s1 | IC50 | 32.9 µM
O=C(CSc1nnc(Nc2ccc(C(F)(F)F)cc2)s1)Nc1nc2ccc([N+](=O)[O-])cc2s1 | IC50 | 75.3 µM
O=C(CSc1nnc(Nc2ccc(C(F)(F)F)cc2)s1)Nc1nc2ccc(F)cc2s1 | IC50 | 17.3 µM
O=C(CSc1nnc(Nc2ccc(C(F)(F)F)cc2)s1)Nc1nccs1 | IC50 | 135 µM
Cc1ccc2nc(NC(=O)CSc3nnc(Nc4ccc(C(F)(F)F)cc4)s3)sc2c1 | IC50 | 30.2 µM
O=C(CSc1nnc(Nc2ccc(C(F)(F)F)cc2)s1)Nc1ncc([N+](=O)[O-])s1 | IC50 | 12.4 µM

====

structureSmilesString | melting point
O=C(CSc1nnc(Nc2ccc(C(F)(F)F)cc2)s1)Nc1nccs1 | 271.4 to 272.5 °C
O=C(CSc1nnc(Nc2ccc(C(F)(F)F)cc2)s1)Nc1nc2ccc([N+](=O)[O-])cc2s1 | 311.8 to 312.5 °C
O=C(CSc1nnc(Nc2ccc(C(F)(F)F)cc2)s1)Nc1nc2ccc(F)cc2s1 | 309.9 to 310.8 °C
O=C(CSc1nnc(Nc2ccc(C(F)(F)F)cc2)s1)Nc1ncc([N+](=O)[O-])s1 | 275 to 276.5 °C

====

studySystem: CSK (Homo sapiens, UniProt P41240)
Sequence (P41240 whole entry): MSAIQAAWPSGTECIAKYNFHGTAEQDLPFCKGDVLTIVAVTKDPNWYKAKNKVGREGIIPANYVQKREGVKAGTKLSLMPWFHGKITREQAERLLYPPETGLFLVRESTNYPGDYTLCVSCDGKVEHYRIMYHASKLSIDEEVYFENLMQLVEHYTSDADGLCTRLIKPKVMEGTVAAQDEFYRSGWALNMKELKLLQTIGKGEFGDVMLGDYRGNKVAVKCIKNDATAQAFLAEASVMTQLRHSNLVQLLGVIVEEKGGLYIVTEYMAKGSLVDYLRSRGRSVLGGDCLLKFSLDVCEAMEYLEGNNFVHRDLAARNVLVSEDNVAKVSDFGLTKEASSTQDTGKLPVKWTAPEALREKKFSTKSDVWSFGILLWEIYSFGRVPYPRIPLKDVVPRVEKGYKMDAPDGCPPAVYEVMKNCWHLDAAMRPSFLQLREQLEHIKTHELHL
assayComment: Kinase inhibition assay (TK-2 profiling, ADP-Glo), CSK

compound | unitsLabel | IC50
O=C(CSc1nnc(Nc2ccc(C(F)(F)F)cc2)s1)Nc1ncc([N+](=O)[O-])s1 [Compound 2] | µM | 18.4

====

Test system: Jurkat cell line
assayComment: MTT cytotoxicity assay, Jurkat cells
Type: cell-based
testConditions: Homo sapiens, 48 h of incubation, mean ± SD, three independent experiments
pIC50: −log10 of the molar value.
Parameter: pIC50. Scope: all listed entries.

molecule | relationSymbol | pIC50
Cc1ccc2nc(NC(=O)CSc3nnc(Nc4ccc(C(F)(F)F)cc4)s3)sc2c1 [Compound 7] | < | 3.52
O=C(CSc1nnc(Nc2ccc(C(F)(F)F)cc2)s1)Nc1ncc([N+](=O)[O-])s1 [Compound 2] | = | 4.75
O=C(CSc1nnc(Nc2ccc(C(F)(F)F)cc2)s1)Nc1nc2ccccc2s1 [Compound 4] | < | 3.52
CCOc1ccc2nc(NC(=O)CSc3nnc(Nc4ccc(C(F)(F)F)cc4)s3)sc2c1 [Compound 9] | = | 4.02
O=C(CSc1nnc(Nc2ccc(C(F)(F)F)cc2)s1)Nc1nc2ccc([N+](=O)[O-])cc2s1 [Compound 10] | < | 3.52
O=C(CSc1nnc(Nc2ccc(C(F)(F)F)cc2)s1)Nc1nc2ccc(Cl)cc2s1 [Compound 6] | = | 4.26
O=C(CSc1nnc(Nc2ccc(C(F)(F)F)cc2)s1)Nc1nc2ccc(F)cc2s1 [Compound 5] | = | 4.01
CCOC(=O)Cc1csc(NC(=O)CSc2nnc(Nc3ccc(C(F)(F)F)cc3)s2)n1 [Compound 3] | = | 3.89
O=C(CSc1nnc(Nc2ccc(C(F)(F)F)cc2)s1)Nc1nccs1 [Compound 1] | < | 3.52
COc1ccc2nc(NC(=O)CSc3nnc(Nc4ccc(C(F)(F)F)cc4)s3)sc2c1 [Compound 8] | < | 3.52
